- assay.name: qHTS for Inhibitors of human tyrosyl-DNA phosphodiesterase 1 (TDP1): qHTS in cells in absence of CPT; further: nearly all actives have a fitted effect of over 55% in size
- condition.details: DT40 Tdp1-/- hTDP1 cells, no CPT, ATP luminescence, 48 h
The campaign covered roughly 420,000 compounds. About 64,000 (15%) were called active. Roughly 27% stayed inconclusive and do not appear here. The call rests on the fitted dose curve; in most records, active means well fitted inhibition curve with a large enough effect; inconclusive means small, poorly fitted or top-dose-only effect; inactive means flat fitted curve, though single readings scatter. Not all results are given here.
Labels: TRUE (active), FALSE (inactive)

{"columns": ["compound", "group"],
 "data": [
  ["COC(=O)CSc1nc(C)c2ccc(OC)cc2n1", "FALSE"],
  ["C[C@@H]1CC2=C(C(=O)OC(C)(C)O2)[C@@H](C2CC2)O1", "FALSE"],
  ["CC1(C)Cc2ccccc2-c2c[nH]c(=O)n21", "FALSE"],
  ["CCN(CC(=O)Nc1c(F)cccc1F)C(=O)CN1c2cccc3cccc(c23)S1(=O)=O", "FALSE"],
  ["CCC(=O)Nc1ccc2nc(SCC(=O)N3CCc4ccccc43)sc2c1", "TRUE"],
  ["COCCCNC(=O)CN1C(=O)CSc2ccc(S(=O)(=O)N3CCOCC3)cc21", "FALSE"],
  ["CC(C)(C)c1ccc(C(=O)N2CCC(c3nc(-c4ccc(S(=O)(=O)N5CCCC5)cc4)no3)CC2)cc1", "TRUE"],
  ["O=C(NCc1nnc(SCC(=O)N2CCCc3ccccc32)o1)c1ccccc1F", "FALSE"],
  ["O=C(Nc1ccc2nc(SCC(=O)N3CCCc4ccccc43)sc2c1)c1ccc(F)cc1", "TRUE"],
  ["O=C(C1Cc2ccccc2CN1C(=O)c1ccco1)N1CCN(c2ccccc2)CC1 (stereo unspecified)", "FALSE"],
  ["O=C(CSc1ccc2nnc(-c3ccccc3)n2n1)N1CCCc2ccccc21", "FALSE"],
  ["CN(C)c1ccc(CNC(=O)CN2C(=O)COc3ccc(S(=O)(=O)N4CCCC4)cc32)cc1", "FALSE"],
  ["O=C(Nc1ccc2nc(SCC(=O)N3CCCc4ccccc43)sc2c1)c1ccc(Cl)cc1", "TRUE"],
  ["CCOC(=O)N1CCN(C(=O)c2ccccc2SCC(=O)NCC2CCCCC2)CC1", "FALSE"],
  ["COc1cc(C2/C(=C(\\O)c3ccc4c(c3)CC(C)O4)C(=O)C(=O)N2Cc2ccco2)ccc1O (stereo unspecified)", "FALSE"],
  ["Clc1cccc(Cl)c1Cn1nnc(-c2cccs2)n1", "FALSE"],
  ["O=C(c1ccncc1)N1CCN(S(=O)(=O)c2cc(C(F)(F)F)cc(C(F)(F)F)c2)CC1", "FALSE"],
  ["Cn1c(=O)c2c(SCC(=O)N3CCc4ccccc43)nc(-c3ccc(Cl)cc3)nc2n(C)c1=O", "FALSE"],
  ["O=C(Nc1ccc2nc(SCC(=O)N3CCc4ccccc43)sc2c1)c1ccccc1F", "FALSE"],
  ["Cc1ccc2c(c1)N(CC(=O)NCC1CCCO1)C(=O)CO2 (stereo unspecified)", "FALSE"],
  ["Cc1nn2c(=O)cc(COC(=O)c3cccc(NC(=O)COc4ccccc4Cl)c3)nc2s1", "FALSE"]
]}

----------
- assay.name: qHTS for Inhibitors of human tyrosyl-DNA phosphodiesterase 1 (TDP1): qHTS in cells in absence of CPT; further: nearly all actives have a fitted effect of over 55% in size
- condition.details: DT40 Tdp1-/- hTDP1 cells, no CPT, ATP luminescence, 48 h
- Description: Human tyrosyl-DNA phosphodiesterase 1 (TDP1) is a novel repair gene, and we propose to use it as a new target for anticancer drug development. […] For the primary screen, Tdp1-/-;hTDP1 cells will be exposed to small molecules in the presence or absence of CPT, and their growth kinetics will be evaluated after 48 hours by measuring ATP activity. […] The hit compounds will then be evaluated in the presence or absence of CPT using Tdp1-/- cells. […]
Screen size: about 420,000 compounds; about 64,000 (15%) were called active. About 27% were inconclusive and are not listed. The call rests on the fitted dose curve; in most records, active means well fitted inhibition curve with a large enough effect; inconclusive means small, poorly fitted or top-dose-only effect; inactive means flat fitted curve, though single readings scatter. Only a sample is shown.
Labels: active, inactive

{"columns": ["compound", "group"],
 "data": [
  ["Cc1cc(NS(=O)(=O)c2ccc3oc(=O)c4ncn(C)c4c3c2)ccc1Br", "inactive"],
  ["O=C(Nc1ccc(Cl)cc1)c1csc([C@@H]2O[C@H](CO)[C@H](O)[C@H](O)[C@H]2O)n1", "inactive"],
  ["O=C(NN=C1CCC(=NNC(=O)c2cccnc2)CC1)c1cccnc1", "inactive"],
  ["CS(=O)(=O)N1CCN(C(=O)c2cc3ccccc3oc2=O)CC1", "inactive"],
  ["COc1ccc(C(=O)NCc2nnc(SCCOc3ccccc3)n2C)cc1", "active"],
  ["O=c1[nH]c(CSc2ncc(-c3ccc(F)cc3)n2Cc2ccco2)nc2ccccc12", "active"],
  ["COc1ccc(Br)cc1/C=N/Nc1ccc(S(=O)(=O)Nc2ccccc2C(=O)O)cc1[N+](=O)[O-]", "inactive"],
  ["CCC(C)NC(=O)Cn1nc(C(F)(F)F)c2c1CCC2 (configuration not stated)", "inactive"],
  ["COc1ccc2c(c1)c(=Cc1ccc(N(C)C)cc1)c1cc(-c3ccccc3)[n+](C)n12", "active"],
  ["Cc1noc(C)c1C(=O)NCC1COc2ccccc2O1 (configuration not stated)", "inactive"],
  ["NC(=O)CC[C@@H]1NC(=O)[C@H](CO)NC(=O)c2cc([N+](=O)[O-])cc(I)c2NCC[C@@H](C(N)=O)NC1=O", "inactive"],
  ["O=C(NN=Cc1ccc([N+](=O)[O-])cc1)C1CC1", "inactive"],
  ["COc1ccccc1C(=O)NCc1nnc(SC(C)C(=O)Nc2nccs2)n1C (configuration not stated)", "inactive"],
  ["CC1(C(=O)NS(=O)(=O)c2ccc3ccccc3c2)CCN1C(=O)C1(c2ccc(Cl)cc2)CCC1 (configuration not stated)", "inactive"],
  ["O=C(c1cc2ccccc2o1)N1CCN(Cc2ccccc2)CC1", "inactive"],
  ["CN(CCC(=O)Nc1cc(S(=O)(=O)N(C)C)ccc1Cl)CC(=O)Nc1ccc(F)cc1", "inactive"],
  ["CN(C)CCCNC(=O)c1ccc2[nH]c3ccccc3c2c1", "inactive"],
  ["COc1ccccc1NS(=O)(=O)c1ccc(C)c(C(=O)NCC(c2ccco2)N(C)C)c1 (configuration not stated)", "inactive"],
  ["O=C(COc1ccc(Cl)cc1)NCCSc1ccccc1", "inactive"],
  ["CC(C)c1cccc(C(C)C)c1Nc1cn[nH]c1", "active"],
  ["Nc1ncnc2c1ncn2[C@@H]1O[C@H](CNCc2cccn2-c2nccs2)[C@@H](O)[C@H]1O", "inactive"],
  ["CCOc1ccc(N(CC)S(=O)(=O)N2CCCC(C(=O)NCc3ccc(SC)cc3)C2)cc1 (configuration not stated)", "active"],
  ["COc1ccc(CC(=O)NCc2nnc(SCC(=O)Nc3nccs3)n2C)cc1", "inactive"],
  ["COc1ccc(C(C#N)(CC(=O)O)c2cnccn2)cc1OC (configuration not stated)", "inactive"],
  ["Cc1cnc(NC(=O)CSc2nnc(C)s2)s1", "inactive"],
  ["O=[N+]([O-])c1ccc(C=NN=Cc2ccc([N+](=O)[O-])cc2)cc1", "inactive"],
  ["Cc1ccc(C(=O)NCCSc2c(C)[nH]c3ccccc23)cc1C", "active"],
  ["N#CCCn1c(=O)c(-c2cc(F)cc(F)c2)nc2cnc(Oc3ccccc3)nc21", "inactive"],
  ["Cc1cccc(CNS(=O)(=O)c2ccc(-c3cnc(C4CC4)o3)cc2)c1", "active"],
  ["COc1cc(NC(=O)c2cc3ccc4cccnc4c3[nH]2)cc(OC)c1OC", "inactive"],
  ["O=C1C(Cl)=C(Oc2ccccc2)C(=O)c2ccccc21", "active"],
  ["CN(CC(=O)Nc1ccc(S(=O)(=O)N2CCCC2)cc1)Cc1ccc(Cl)c(Cl)c1", "active"],
  ["C[C@H](C(=O)CC(=O)OC(C)(C)C)[C@H](O)c1ccc(C(F)(F)F)cc1", "inactive"],
  ["CN1CCN(S(=O)(=O)c2ccc(NC(=O)C3CCCO3)cc2)CC1 (configuration not stated)", "inactive"],
  ["Cc1cccc(CN2CCC(n3nccc3NC(=O)c3ccccc3C)CC2)n1", "inactive"],
  ["COc1ccc(CC(=O)NCc2nnc(SCC(=O)Nc3ncc(C)s3)n2C)cc1", "active"],
  ["c1ccc2c(c1)OCC(CNc1ncnc3nc[nH]c13)O2 (configuration not stated)", "active"],
  ["O=C1/C(=C\\c2ccc([N+](=O)[O-])cc2)CS(=O)(=O)C/C1=C/c1ccc([N+](=O)[O-])cc1", "active"],
  ["CCc1ccc(NC(=O)CN2C(=O)COc3ccc(S(=O)(=O)N4CCCC4)cc32)cc1", "inactive"],
  ["COc1ccc(-n2nnnc2CNC(=O)c2ccc3ccccc3c2)cc1", "inactive"],
  ["COc1ccc(NC(=O)C2CCCN(S(=O)(=O)c3cccc4cccnc34)C2)cc1 (configuration not stated)", "inactive"],
  ["CCc1ccc(CN(C)C(C)C(=O)Nc2ccc(S(=O)(=O)N3CCCC3)cc2)cc1 (configuration not stated)", "active"]
]}
